Kindly supply the reported human MASP2 IC50 values for the records listed here.
- EXPERIMENTAL SYSTEM: recombinant human MASP2 (amino acids 297-686, C-terminal His Tag) (human, UniProt O00187 297-686)
- Sequence (O00187 other isoform, or with tags, fused parts or gaps limits assumed): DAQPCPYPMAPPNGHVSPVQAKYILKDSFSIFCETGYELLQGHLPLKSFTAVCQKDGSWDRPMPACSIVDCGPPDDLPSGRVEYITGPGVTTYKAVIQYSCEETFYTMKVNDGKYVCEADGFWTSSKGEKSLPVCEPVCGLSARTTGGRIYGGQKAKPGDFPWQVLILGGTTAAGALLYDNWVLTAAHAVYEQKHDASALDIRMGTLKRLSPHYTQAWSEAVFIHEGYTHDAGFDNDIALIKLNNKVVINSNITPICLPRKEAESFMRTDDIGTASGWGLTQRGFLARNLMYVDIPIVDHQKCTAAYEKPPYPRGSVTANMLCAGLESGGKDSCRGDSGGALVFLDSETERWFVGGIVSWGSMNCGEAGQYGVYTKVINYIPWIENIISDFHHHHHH
- EXPERIMENT DESCRIPTION: cell-based or functional assay
Bridges are numbered along the chain shown (N, C = ends). Where no end group is shown, it is not given here. [ ]: non-standard residue; d: D form. Oic = O=C(O)[C@@H]1C[C@@H]2CCCC[C@@H]2N1; tBuAla = CC(C)(C)C[C@H](N)C(=O)O; Pen = CC(C)(S)[C@H](N)C(=O)O; Orn = NCCC[C@H](N)C(=O)O; Ahx = NCCCCCC(=O)O
Numbers only, in µM.

// batch mode: one human MASP2 IC50 value per listed entry
1. AGAICSRSLP[Oic]I[Pen]IPD-NH2 (disulfide 5-13; lactam N-16; also: TFA salt) [Example 41: A**GAIC+SRSLP-(Oic)-I-(Pen)+-IPD++-NH2]
2. cyclo([Ahx]AICSRSLPPICIPD) (disulfide 4-12; also: TFA salt) [Example 45: (Ahx)**-AIC+SRSLPPIC+IPD**]
3. [Ahx]GAICSRSLP[Oic]I[Pen]IPE-NH2 (disulfide 5-13; lactam N-16; also: TFA salt) [Example 82: (Ahx)**-GAIC+SRSLP-(Oic)-I-(Pen)+-IPE++-NH2]
4. cyclo([Ahx]GICSRSLPPICIP[dD]) (disulfide 4-12; also: TFA salt) [Example 16: (Ahx)**-GIC+SRSLPPIC+IPd**]
5. [Orn]ICSRS[tBuAla]PPI[Pen]I (lactam 1-C; disulfide 3-11; also: TFA salt) [Example 66: (Orn)++-IC+SRS-((tBu)A)-PPI-(Pen)+-I**]

Result:
0.19
0.074
0.7
0.37
0.022
